Reference for the values: patent US20260248892A1

# experimental target: Pig IR (pig, UniProt F1SCL0 28-1382)
# experimental details: cell-based or functional assay
property label: Pig IR phosphorylation [EC 50 nM] mean (nM)
Please state the figure in nM; there is no need to write the unit.

Query (binder): scl-Fc fusion protein INS018 (Fc fusion) FVNQHLCGSHLVEALELVCGERGFHYTPKTGSYPGGVGIVEQCCTSICSLSQLEDYCGGEAEDLQVGQVELGGGPGAGSLQPEGSLQGGPSVFLFPPKPKDTLMISRTPEVTCVVVDVSHEDPEVKFNWYVDGVEVHNAKTKPREEQYNSTYRVVSVLTVLHQDWLNGKEYKCKVSNKALPAPIEKTISKAKGQPREPQVYTLPPSRDELTKNQVSLTCLVKGFYPSDIAVEWESNGQPENNYKTTPPVLDSDGSFFLYSKLTVDKSRWQQGNVFSCSVMHEALHNHYTQKSLSLSPGGGGGSAESKYGPPCPPCPA ; field requested: Pig IR phosphorylation [EC 50 nM] mean
60
